| Compound | Unit descriptor | melting point |
| --- | --- | --- |
| CSc1ccc(NC(=O)c2cc([N+](=O)[O-])ccc2Cl)cc1 [compound 29] | °C | 162 |
| Cc1cc(C23CC4CC(CC(C4)C2)C3)ccc1NC(=O)c1cc([N+](=O)[O-])ccc1F [compound 45] | °C | 198 |
| O=C(c1ccccc1)c1ccc(NC(=O)c2cc([N+](=O)[O-])ccc2Cl)cc1 [compound 51] | °C | 226 |
| Cc1cc(C23CC4CC(CC(C4)C2)C3)ccc1NC(=O)c1cc(Cl)ccc1[N+](=O)[O-] [compound 57] | °C | 233 |
| Cc1cc(C23CC4CC(CC(C4)C2)C3)ccc1NC(=O)c1cc([N+](=O)[O-])ccc1C [compound 36] | °C | 198 |
| Cc1cc(C23CC4CC(CC(C4)C2)C3)ccc1NS(=O)(=O)c1ccccc1Cl [compound 25] | °C | 200 |
| CSc1ccc(Cl)c(C(=O)Nc2ccc(C34CC5CC(CC(C5)C3)C4)cc2C)c1 [compound 68] | °C | 65 |
| O=C(Nc1ccc(Oc2ccccn2)cc1)c1cc([N+](=O)[O-])ccc1Cl [compound 63] | °C | 198 |
| O=[N+]([O-])c1ccc(Cl)c(S(=O)(=O)Nc2ccc(Oc3ncc(C(F)(F)F)cc3Cl)cc2)c1 [compound 80] | °C | 171 |
| O=C(Nc1ccc(N2CCOCC2)cc1)c1cc([N+](=O)[O-])ccc1Cl [compound 66] | °C | 195 |
| Cc1cc(C23CC4CC(CC(C4)C2)C3)ccc1NC(=O)c1cccc([N+](=O)[O-])c1Cl [compound 60] | °C | 222 |
| O=C(Nc1ccc(Oc2ncc(C(F)(F)F)cc2Cl)cc1)c1cc([N+](=O)[O-])ccc1Cl [compound 64] | °C | 203 |
| O=C(Nc1cccc(C(F)(F)F)c1)c1cc([N+](=O)[O-])ccc1Cl [compound 33] | °C | 168 |

// data source = patent US7132546B2
